Tested on: SK-MEL-2 melanoma
Assay: NCI tumour cell line growth inhibition, 48 h; in the data active = GI50 below about 0.43 µM; inactive = the rest
Answer with one of the outcomes given here: active, inactive

Past entries and their recorded results:
| compound | answer_label |
| --- | --- |
| COc1ccc2[nH]c(C(=O)OCc3ccc4c(Cl)cc(Cl)c(O)c4n3)cc2c1 | inactive |
| CC/C(=C/c1ccc(OC)cc1OC)[N+](=O)[O-] | inactive |
| CC[C@H](C)[C@H](NC(=O)c1cccn1C)C(=O)N(C)[C@H](C[C@@H](OC(C)=O)c1nc(C(=O)N[C@@H](Cc2ccccc2)C[C@H](C)C(=O)OC)cs1)C(C)C | active |
| COc1cc(/C=C2\CCCC3=C2N=C2SC(C)=NN2C3c2cc(OC)c(OC)c(OC)c2)cc(OC)c1OC (stereo not given) | inactive |

Query: Hi, sorry to bother you, what did the test record for O=P(O)(O)OCC1OC(n2cnc3c(NCc4ccccc4)ncnc32)C(O)C1O (stereo not given) ?
Response: inactive
